Test system: tps1Δ cells
Assay: Growth rescue of tps1Δ strain on glucose (growth curves, 2% galactose medium)
Format: cell-based, S. cerevisiae
Conditions: 100 μM compound, 2.5 mM glucose
metric-name: Rescue of the tps1Δ strain on 2.5 mM glucose at 100 μM

Query: For CCn1c(CCC(N)=O)nnc1Sc1nc(C)nc2scc(-c3cccs3)c12 [16C] , write its Rescue of the tps1Δ strain on 2.5 mM glucose at 100 μM.
Response: Yes

Query: For CCOC(=O)CNC(=O)CSc1nnc(C)c2cnn(-c3ccccc3)c12 [73C] , write its Rescue of the tps1Δ strain on 2.5 mM glucose at 100 μM.
Response: No

Query: For `Cc1nc(SCC(=O)N(C)CCC#N)c2c(-c3cccs3)csc2n1` , write its Rescue of the tps1Δ strain on 2.5 mM glucose at 100 μM.
Response: Yes

Query: For CC(C)Sc1nc(SCCN2CCOCC2)c2c3c(sc2n1)COC(C)(C)C3 [80C] , write its Rescue of the tps1Δ strain on 2.5 mM glucose at 100 μM.
Response: No

Query: For CCOC(=O)c1sc2nc(C)nc(SCC(=O)CC)c2c1C [12C] , write its Rescue of the tps1Δ strain on 2.5 mM glucose at 100 μM.
Response: No

Query: For CCN(CC)CCSc1ncnc2scc(-c3ccccc3)c12 [36C] , write its Rescue of the tps1Δ strain on 2.5 mM glucose at 100 μM.
Response: No

Query: For `Cc1nc(Sc2nnc3n2CCCCC3)c2c(-c3cccs3)csc2n1` , write its Rescue of the tps1Δ strain on 2.5 mM glucose at 100 μM.
Response: Yes

Query: For COc1ccc(-c2csc3nc(C)nc(Sc4nccn4C)c23)cc1OC [42A] , write its Rescue of the tps1Δ strain on 2.5 mM glucose at 100 μM.
Response: No

***
Query: For Cc1nc(Sc2nc(CSc3ccccc3)nc3sc(C)c(C)c23)n[nH]1 [10A] , write its Rescue of the tps1Δ strain on 2.5 mM glucose at 100 μM.
Response: No

Query: For `CCn1nnnc1Sc1nc(CN2CCOCC2)nc2scc(-c3cccs3)c12` , write its Rescue of the tps1Δ strain on 2.5 mM glucose at 100 μM.
Response: No

* * *

System: tps1Δ cells
Test: Growth rescue of tps1Δ strain on glucose (growth curves, 2% galactose medium)
Type: cell-based, S. cerevisiae
Settings: 100 μM compound, 2.5 mM glucose
metric-name: Rescue of the tps1Δ strain on 2.5 mM glucose at 100 μM

Completed entries (count: 5):
Query: For Cc1sc2nc(CN3CCOCC3)nc(Sc3nnc4n3CCCCC4)c2c1C [28A] , write its Rescue of the tps1Δ strain on 2.5 mM glucose at 100 μM.
Response: No

Query: For Cc1sc2nc(-c3cccs3)nc(Sc3nnc(C)n3C)c2c1C [16A] , write its Rescue of the tps1Δ strain on 2.5 mM glucose at 100 μM.
Response: No

Query: For CC(=O)NCc1ccc(C(=O)CSc2nc(C)nc3scc(-c4cccs4)c23)o1 [29B] , write its Rescue of the tps1Δ strain on 2.5 mM glucose at 100 μM.
Response: Yes

Query: For OCCSc1ncnc2sc3c(c12)CCCC3 [27C] , write its Rescue of the tps1Δ strain on 2.5 mM glucose at 100 μM.
Response: No

Query: For Cc1nc(SCCN2CCCS2(=O)=O)c2c(C)c(C)sc2n1 [83C] , write its Rescue of the tps1Δ strain on 2.5 mM glucose at 100 μM.
Response: No

***
Query: For Cc1nc(Sc2nnc(C(F)(F)F)n2C)c2c(-c3cccs3)csc2n1 [54C] , write its Rescue of the tps1Δ strain on 2.5 mM glucose at 100 μM.
Response: Yes

Query: For Cc1nc(SCC(=O)N(Cc2ccccc2)Cc2ccccc2)c2c(-c3cccs3)csc2n1 [22B] , write its Rescue of the tps1Δ strain on 2.5 mM glucose at 100 μM.
Response: No

Query: For Cc1nc(SCC(=O)Nc2ccccc2C#N)c2c(-c3cccs3)csc2n1 [19B] , write its Rescue of the tps1Δ strain on 2.5 mM glucose at 100 μM.
Response: No

Query: For Cc1nc(Sc2nnnn2C2CC2)c2c(-c3cccs3)csc2n1 [44C] , write its Rescue of the tps1Δ strain on 2.5 mM glucose at 100 μM.
Response: No

Query: For COC(=O)CN(C)c1nc(C)nc2scc(-c3ccc(OC)c(OC)c3)c12 [67C] , write its Rescue of the tps1Δ strain on 2.5 mM glucose at 100 μM.
Response: No
